B1: FBXO3 (parent)
chain: FIDTYSDVGRYIDHYAAIKKAWDD

# Variants of: B1
# EXPERIMENTAL DETAILS: protein stability index of a GFP-peptide fusion (GPS, HEK-293T) (PSI 1-6); higher = more stable;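 note: lentivirally expressed fusions sorted by FACS into six bins by GFP to DsRed ratio, PSI derived from sequencing read proportions per bin multiplied by bin number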
# EXPERIMENTAL CONTEXT: c terminus: a fixed tail appended
EXPERIMENTAL READOUT: protein stability index
# answer = number (no unit)

protein stability index for Y15A is 1.93

protein stability index for D24G is 1.61

protein stability index for K19N is 1.88

protein stability index for K20Y is 2.08

protein stability index for D3L is 2.3

protein stability index for S6A is 1.97

protein stability index for A16F is 1.69

protein stability index for K20W is 2.86

protein stability index for H14I is 1.71

protein stability index for G9N is 2.05

protein stability index for D13H is 2.06

protein stability index for A16Y is 2.71

protein stability index for T4K is 1.83

protein stability index for I2F is 2.63

protein stability index for K19M is 3.18

protein stability index for D7C is 1.86

protein stability index for K20E is 2.29

protein stability index for H14T is 1.71

protein stability index for D3H is 1.81

protein stability index for A17H is 2.59
